Reported K values follow for various compounds
Organism: Rattus norvegicus
test_details: Open TG-GATES - Regimen: Daily Repeat
Type: toxicity, organism-based, Sprague-Dawley
Design: regimen Daily Repeat, gender Male, age 6 weeks
measurement_parameters: in vivo, po, 100 mg/kg, 72 h, tissue Plasma, route gavage, dose level Low, time 3 day

compound: CC(S)C(=O)NCC(=O)O (centres undefined) [TIOPRONIN]
K [meq/L]: 4.4
--
compound: CC(=O)[C@@]1(O)CC[C@H]2[C@@H]3C=C(Cl)C4=CC(=O)CC[C@]4(C)[C@H]3CC[C@@]21C [CHLORMADINONE]
K [meq/L]: 4.5
--
compound: CCCCNC(=O)NS(=O)(=O)c1ccc(C)cc1 [TOLBUTAMIDE]
K [meq/L]: 3.9
--
compound: O=C(O)c1ccccc1Nc1ccccc1 [FENAMIC ACID]
K [meq/L]: 4.2
